System: OVCAR-4
assay comment: in vitro ovarian cancer cell growth inhibition (NCI screen)
assay conditions: OVACR-4
# reported cytotoxicity log GI50; entries follow
Report only the number, with the unit M understood.

O=C1c2ccccc2C(=O)c2[nH]c(Cc3ccccc3F)nc21 [Compound 4b]    -4.55

State the recorded cytotoxicity log GI50 for this entry: COC(=O)CCC(=O)NC1=C(NCc2ccccc2)C(=O)c2ccccc2C1=O [Compound 55] -4.73

State the recorded cytotoxicity log GI50 for this entry: CCNC1=C(NC(=O)CCl)C(=O)c2ccccc2C1=O [Compound 44] -4.77

State the recorded cytotoxicity log GI50 for this entry: O=C(O)CCCc1nc2c(n1-c1ccccc1)C(=O)c1ccccc1C2=O [Compound 58] -4.62

State the recorded cytotoxicity log GI50 for this entry: CCCc1nc2c(n1CC)C(=O)c1ccccc1C2=O [Compound 24] -4.49

State the recorded cytotoxicity log GI50 for this entry: COc1ccc(CNC2=C(NC(C)=O)C(=O)c3ccccc3C2=O)cc1 [Compound 41] -5.09
